The origin of these recorded values is paper PMC12040169.

test: in vitro; settings: human, hela cells, % viability
As shown below, each of these compounds has a reported viability at 28.5 h, 10 µM value.
measured.endpoint: viability at 28.5 h, 10 µM (%)

>>> measured_value("COc1ccc(CN(Cc2ccc(OC)cc2)Cc2ccc(S(=O)(=O)N3CCOC3=O)cc2)cc1 [CBK014818]")
110
>>> measured_value("COc1ccc(-c2noc(CN(C)C(=O)c3cccs3)n2)cc1 [CBK270286]")
89.6
>>> measured_value("COc1ccccc1C(NC(=O)C1CCN(C(=O)OC(C)C)CC1)c1ccccn1 (stereo not shown) [CBK059649]")
111
>>> measured_value("Cc1cccc(-c2noc(CN(C(=O)c3ccc4c(c3)OCO4)C(C)C)n2)c1 [CBK268817]")
98.1
>>> measured_value("O=C(O)c1cc2ncc(-c3n[nH]cc3[N+](=O)[O-])cn2n1 [CBK269072]")
100
>>> measured_value("OCc1cccc(-c2nccnc2NCC(O)COc2ccccc2)c1 (stereo not shown) [CBK036842]")
94.3
>>> measured_value("COc1cccc(CN2CCC(C(=O)O)CC2)c1OC [CBK286548]")
90.5
>>> measured_value("CCCCNC(=S)NC1CC[C@@]2(c3ccc(Br)cc3)CCN(C)[C@H]2C1 (stereo partly shown) [CBK003781]")
111
>>> measured_value("O=C(Nc1ccccc1C(=O)O)c1ccccc1Cl [CBK287114]")
88
>>> measured_value("NC(=O)CC1C=CS(=O)(=O)C1 (stereo not shown) [CBK019653]")
76.7

====

assay: in vitro; settings: human, hela cells, % viability
measured.endpoint: viability at 28.5 h, 10 µM (%)

>>> measured_value("O=C(CN1C(=O)S/C(=C\\c2ccc(OCc3ccccc3F)cc2)C1=O)c1ccc(Cl)cc1")
97.6
>>> measured_value("CCCn1cnnc1C(C)NS(=O)(=O)c1cccc(C(=O)N2CCC2)c1 (stereo not drawn)")
103
>>> measured_value("C#CCOc1cncc(Cl)n1")
87.7
>>> measured_value("O=C(c1cccc([N+](=O)[O-])c1)N1CCN(S(=O)(=O)N2CCOCC2)CC1")
100
>>> measured_value("CCOc1ccccc1N1CCN(C(C(=O)O)c2c[nH]c3ccc(CO)cc23)CC1 (stereo not drawn)")
90.1
>>> measured_value("CC(Sc1nc2cc(Cl)ccc2c(=O)n1CC1CCCO1)C(N)=O (stereo not drawn)")
99.6
>>> measured_value("O=[N+]([O-])c1cccc(-c2cc(N3CCC(N4CCCCC4)CC3)ncn2)c1")
107
>>> measured_value("Cc1ncsc1CCN(C)C(=O)Cn1nc(C)c2ccccc2c1=O")
86.3
>>> measured_value("CSc1ccccc1C(=O)NCCCn1ccnc1")
85.3
>>> measured_value("NNc1nccc(Nc2ccccc2C(=O)O)n1")
95.9
>>> measured_value("O=C(Nc1cccc(Cl)c1)Nc1ccccc1NC(=O)Nc1cccc(Cl)c1")
92.4
>>> measured_value("Nc1nnc(SCC(=O)N(Cc2ccccc2F)C2CC2)s1")
84.3
>>> measured_value("O=C(c1ccccc1)N1CCc2[nH]nc(-c3ccccc3)c2C1")
92.5
>>> measured_value("COc1cc(C(c2c(C)n(C)n(-c3ccccc3)c2=O)c2c(C)n(C)n(-c3ccccc3)c2=O)ccc1O")
110
>>> measured_value("Fc1ccc(-c2cccc(N3CCN(c4ccccn4)CC3)n2)cc1Cl")
104
>>> measured_value("COc1cc(NC(=O)C(C)Oc2ccc(Cl)cc2C)c(C(=O)O)cc1OC (stereo not drawn)")
86
>>> measured_value("O=C(Nc1cc(Cl)nc(Cl)c1)N(Cc1ccc2ccccc2c1)CC1CCNCC1")
105
>>> measured_value("Nc1ccccc1-c1ccccc1NC(=O)C(=O)O")
110
>>> measured_value("Nn1c(COc2ccccc2)nnc1SCC(=O)c1ccc2c(c1)CCCC2")
100
>>> measured_value("CCOC(=O)C1(Cc2cc(-c3ccccc3)no2)CCNCC1")
111
>>> measured_value("Nc1nc(CSc2nnc(-c3ccco3)n2-c2ccccc2)cs1")
97.9
>>> measured_value("Cc1cccnc1C(c1ccc(F)cc1)N(C)C(=O)C1CCN(C(=O)OCc2ccccc2)CC1 (stereo not drawn)")
116
>>> measured_value("NC(=O)c1c(NC(=O)COc2ccccc2[N+](=O)[O-])sc2c1CCC2")
105
>>> measured_value("CN(C)CCNC(=O)c1cccc(-c2cncc(NCc3ccc4c(c3)OCO4)n2)c1")
110
>>> measured_value("CC(CCN(CCN)C(=O)N1CCC(CNS(C)(=O)=O)(c2ccccc2)CC1)c1ccccc1 (stereo not drawn) [CBK002335C]")
82.9
>>> measured_value("Cc1cnc(CN2CCNC(=O)C2c2ccccc2C(F)(F)F)o1 (stereo not drawn)")
85.4
>>> measured_value("O=[N+]([O-])c1cc(S(=O)(=O)Nc2nnc(C(F)(F)F)s2)ccc1Cl")
105
>>> measured_value("COCCN(C)c1nc2c(c(=O)[nH]1)Cc1ccccc1OC2")
105
>>> measured_value("CCN(CCc1ccccn1)S(=O)(=O)c1ccc(OC(F)(F)F)cc1")
92.4
>>> measured_value("CCOc1ccc(NCCCCO)cc1")
92
>>> measured_value("Cn1c(SCC(=O)n2c3c(c4ccccc42)CCCC3)nnc1-c1ccco1")
99.2
>>> measured_value("O=C(CC(CN1CCN(c2ccccn2)CC1)C(=O)O)NC1CCCCC1 (stereo not drawn)")
87.7
>>> measured_value("CCn1cc(CN(CCCn2ccnc2)Cc2cccc(F)c2)cn1")
107
>>> measured_value("Cc1nc2ccccc2n1CC(O)COc1ccccc1 (stereo not drawn)")
106
>>> measured_value("O=C(c1ccccc1F)N1CCC(c2n[nH]c3ncccc23)CC1")
91.7
>>> measured_value("O=C(COC(=O)c1cc(O)nc2ccccc12)c1ccc(Br)cc1")
103
>>> measured_value("Cc1cc(C)nc(NC(=O)c2c(Cl)cccc2Cl)n1")
99.9
>>> measured_value("CCOC(=O)C(Cc1ccccc1)NC(=O)c1cn[nH]c1C (stereo not drawn)")
99.7
>>> measured_value("COC(=O)c1ccsc1NS(=O)(=O)c1cc(Br)ccc1OC")
86.8

====

assay: in vitro; conditions: human, hela cells, % viability
measured.endpoint: viability at 28.5 h, 10 µM (%)

>>> measured_value("CN(C)CCCNc1nc(-c2cccc(Cl)c2)nc2ccccc12 [CBK267284C]")
81.5
>>> measured_value("O=C(NC1CCCCC1)C1CCCN(C(=O)NCc2ccccn2)C1 (stereo not drawn)")
114
>>> measured_value("N#Cc1ccc(-c2cnc(NC(=O)C(F)(F)F)c(-c3ccc(C(=O)N4CCOCC4)cc3)n2)cc1")
94.2
>>> measured_value("CCCCN(C=O)c1c(CC)nc2ccc(C(=O)NCC3CCCCC3)cn12")
85.3
>>> measured_value("OCCOc1ccc(OCCOc2nccnc2N2CCNCC2)cc1 [CBK014349G]")
93.9
>>> measured_value("CC(C)(C)c1cn(C[C@H]2CC3CCN2C[C@@H]3C(=O)NC2CCCCC2)nn1 (stereo partly drawn)")
83.9
>>> measured_value("CC1(C)CC(=O)C=C(C(=O)Nc2c(F)cc(F)cc2OC2CCNCC2)O1 [CBK050332T]")
110
>>> measured_value("O=CN1CCc2c([nH]c3cc(F)ccc23)C12CCN(CCc1ccc3c(c1)OCO3)CC2")
86.5
>>> measured_value("Cc1nn(C)c(Cl)c1CN1CCCC(CCC(=O)N2CCN(C)CC2)C1 (stereo not drawn)")
92.5

====

test: in vitro; conditions: human, hela cells, % viability
Threshold 90%: viability at 28.5 h, 10 µM strictly smaller gives Yes, otherwise No.

>>> discrete_label("Cc1nc2c3ccccc3nc(SCC(=O)Nc3ccccc3)n2n1 [CBK295205]")
"Yes"
>>> discrete_label("O=C(NCC1CCCO1)c1ccc(-n2ccnc2)c(-n2cccc2)c1 (centres unmarked) [CBK285356]")
"No"
>>> discrete_label("COc1cccc(-c2ccc3ccc(N)nc3n2)c1 [CBK061640]")
"No"

====

assay: in vitro; conditions: human, hela cells, % viability
measured.endpoint: viability at 28.5 h, 10 µM (%)

>>> measured_value("CNCC(=O)N[C@H]1CCN2C(=O)c3ccc(Cl)cc3NC(=O)[C@@H]2C1 [CBK289566]")
83.6
>>> measured_value("Cc1ccc(OCc2nnc(SCC(=O)O)n2N)cc1 [CBK266603]")
95.8
>>> measured_value("Cc1[nH]ncc1CN1CCCC(c2cc3ccccc3cn2)C1 (centres unmarked) [CBK285029]")
108
>>> measured_value("Cc1ccc(/C=N\\NC(=O)c2cccc(Cl)c2)s1 [CBK016469]")
90.8
>>> measured_value("CN(C)c1nc2ccc(OCCN3CCOCC3)cc2s1 [CBK261135]")
82.5
>>> measured_value("Cn1cc(C(=O)N2CCCC3(C/C=C/COc4ccccc4C(=O)NCCNC3=O)C2)cn1 (centres unmarked) [CBK292102]")
96.4
>>> measured_value("CCc1ccc(C(=O)C(C)OC(=O)c2nc3nc(C)cc(C)n3n2)cc1 (centres unmarked) [CBK305023]")
87.7
>>> measured_value("O=C1CCC(=O)N1CCOc1nccnc1OC1CCNCC1 [CBK075084T]")
101
>>> measured_value("O=S(=O)(N1CCCCCC1)N1CCN(S(=O)(=O)N2CCCCC2)CC1 [CBK269001]")
114
>>> measured_value("O=C(O)CC1S/C(=N/N=C/c2ccc(-c3ccc(Cl)cc3)o2)NC1=O (centres unmarked) [CBK264595]")
125
>>> measured_value("Cc1cc(C(=O)N2CCCC2c2ccc[nH]2)c2c(C)noc2n1 (centres unmarked) [CBK305245]")
91.5
>>> measured_value("CCN(CC)c1c(C)nc2ccc(C(=O)NCc3ccc(N(C)C)cc3)cn12 [CBK145961]")
92.7
>>> measured_value("CC(C)=C(NC(=O)c1ccccc1)C(=O)Nc1cccc(C(=O)O)c1 [CBK058180]")
105
>>> measured_value("CC(=O)Nc1ccc(C(=O)N2CCC(c3cccc(Cc4ccccc4Cl)n3)CC2)cc1 [CBK286111]")
96.2
>>> measured_value("CS(=O)(=O)c1ccc(CN2CCC3(CCN(Cc4ccccc4)CC3)C2)cc1 [CBK144066T]")
92.2
>>> measured_value("CC(=O)N(C)c1nc(-c2ccccc2)ccc1C(=O)NCc1ccco1 [CBK106334]")
99.3
>>> measured_value("COc1ccc(-c2ccc(CCC(=O)O)n2CCc2ccccc2)cc1 [CBK265929]")
115
>>> measured_value("COC(=O)C#CCNc1cc(Cl)ccc1Cl [CBK025852]")
57.6
>>> measured_value("CN=C(S)N=C(Nc1ccccc1)c1ccccc1 [CBK261037]")
89.1
>>> measured_value("Cc1nc2c(c(=O)[nH]1)CN(Cc1cccc(Oc3ccccc3)c1)CC2 [CBK283951]")
104
>>> measured_value("NC(=O)CN1CCC(Oc2cncc(OCc3ccc(Cl)c(Cl)c3)n2)C1 (centres unmarked) [CBK084429]")
101
>>> measured_value("Cc1ccc(NC(=O)Cn2cnc3c(=O)n(C)c(=O)n(C)c32)c(O)c1 [CBK267002]")
102
>>> measured_value("Nc1ncc(-c2cccnc2)nc1NC1CCC(O)CC1 (centres unmarked) [CBK063840]")
92.7
>>> measured_value("Cc1ccc(C)c2c(C)c(C(=O)NCC[S+](C)[O-])[nH]c12 (centres unmarked) [CBK282484]")
76.5
>>> measured_value("c1cncc(CN2CCOC[C@H]2c2nc(-c3cccnc3)c[nH]2)c1 [CBK289323]")
86.3
>>> measured_value("CC(=O)c1ccc(NC(=O)CSc2nnc(-c3ccc4ccccc4n3)s2)cc1 [CBK269205]")
97.6
>>> measured_value("COc1ccc(C(NC(=O)CSCc2cccc(C(=O)O)c2)c2ccc(OC)cc2)cc1 [CBK296680]")
97.6
>>> measured_value("CCCn1c(=S)[nH]c2cc(C(=O)NCCc3ccc(Cl)cc3)ccc2c1=O [CBK294445]")
88.6
>>> measured_value("CC(C)Nc1nc2ccccc2nc1SCCc1ccncc1 [CBK103670]")
87.8
>>> measured_value("O=C(CN1C2CCC1CC(O)(c1ccco1)C2)N1CCCC1 (centres unmarked) [CBK284042]")
88.7
>>> measured_value("CNC1CCC2(c3ccc(OC)c(OC)c3)CCN(C)C2C1 (centres unmarked) [CBK059586C]")
87.3
>>> measured_value("CCCCCC1=NN(C(=O)OCC)C(O)(C(F)(F)F)C1 (centres unmarked) [CBK027739]")
94.9
>>> measured_value("O=C(Nc1ccc(=O)n2c1[C@@H]1C[C@@H](CN(C(=O)Nc3ccc(F)cc3)C1)C2)c1ccccc1 [CBK288715]")
89.9
>>> measured_value("Cc1ccc(C2C(C(=O)c3ccc(Cl)cc3)=C(O)C(=O)N2CCCN2CCOCC2)o1 (centres unmarked) [CBK264514]")
92.6
>>> measured_value("O=C(O)c1cc(S(=O)(=O)Nc2nnc(C(F)(F)F)s2)c(F)cc1Cl [CBK062022]")
95
>>> measured_value("O=C(Nc1ccc(F)c(F)c1)NC1CCC2CN(CCOc3ccccc3)CC2C1 (centres unmarked) [CBK083365T]")
105
>>> measured_value("CCN1C(=O)CC2(C1=O)C(=O)N(Cc1nc(OC)cc(OC)n1)c1ccccc12 (centres unmarked) [CBK075510]")
75.8
>>> measured_value("O=C(NCCc1ccc(Cl)cc1)C1(Cc2ccc(-c3ccncc3)cc2)CCOCC1 [CBK285570]")
89
